Biological target: T1, human IgE (human, UniProt P01854)
T1 chain: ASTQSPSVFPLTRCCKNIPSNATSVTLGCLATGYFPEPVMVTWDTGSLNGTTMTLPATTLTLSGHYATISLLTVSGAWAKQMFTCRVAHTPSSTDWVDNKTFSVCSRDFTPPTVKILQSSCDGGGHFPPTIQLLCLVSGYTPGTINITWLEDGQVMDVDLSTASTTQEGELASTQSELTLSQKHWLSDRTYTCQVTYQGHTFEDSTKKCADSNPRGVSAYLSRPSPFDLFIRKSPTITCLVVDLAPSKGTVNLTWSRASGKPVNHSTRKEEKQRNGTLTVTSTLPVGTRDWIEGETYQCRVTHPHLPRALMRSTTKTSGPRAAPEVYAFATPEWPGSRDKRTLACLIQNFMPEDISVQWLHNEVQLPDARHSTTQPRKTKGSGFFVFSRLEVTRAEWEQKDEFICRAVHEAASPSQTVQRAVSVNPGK
Test: competition ELISA, pH 6.0
attribute_measured: IC50
Write down the value, and be sure its unit follows.

Known results for binders:
binder	observed_result
18B9His-hIgG1-ABDEG (antibody, V domains shown) VH: QVQLVESGGGLVQPGGSLRLSCAASGFTFSSYVMSWVRQAPGKGLEWVSSIYSDGSHTYYADSVKGRFTISRDNAKNTLYLQMNSLKSEDTAVYYCAKNLEHYSGSYYYTDPRYDYWGQGTQVTVSS VL: SSALTQPSALSVTLGQTAKITCQGGSLGSSYVHWYQQKPGQAPVLVIHDGDSRPSGIPERFSGSSSGGTATLTISGAQAEDEDDYYCQSADSSGNAVFGGGTHLTVL	2.55 µg/mL
13E4 (antibody, V domains shown) VH: ELQLVESGGGLVQPGGSLRLSCAASGFTFSSYVMSWVRQAPGKGLEWVSSIYHDGSHTYYADFVKGRFTISRDNAKNTLYLQMNSLKSEDTAVYYCASGTSYSGSYYYTDPFFGSWGQGTQVTVSS VL: HSAVTQPSALSVTLGQTAKITCQGGSLGSNYAYWYQQKPGQAPVLVIYDDDSRPSGIPERFSGSSSGGTATLTISGAQAEDEGDYYCQSADSNGNAVFGGGTHLTVL	0.0114 µg/mL

Record VL18B9_Y49H (18B9His) (antibody, V domains shown) VH: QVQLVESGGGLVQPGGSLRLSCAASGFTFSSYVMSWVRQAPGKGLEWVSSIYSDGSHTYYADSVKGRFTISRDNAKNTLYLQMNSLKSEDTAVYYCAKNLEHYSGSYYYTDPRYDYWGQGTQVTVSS VL: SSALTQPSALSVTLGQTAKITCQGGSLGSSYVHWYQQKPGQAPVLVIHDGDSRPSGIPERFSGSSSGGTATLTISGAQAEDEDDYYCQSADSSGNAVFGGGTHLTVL . Reported IC50: 3.02 µg/mL
